observation-type: melting point

INSERT INTO measurements (compound, observation_type, value_measured) VALUES
  ('C[n+]1c(CC(=O)c2ccc(Cl)cc2)cccc1CC(=O)c1ccc(Br)cc1.[I-]', 'melting point', '226 to 227 °C'),
  ('C[n+]1c(CC(=O)c2ccccc2)cccc1CC(=O)c1ccc(Br)cc1.[I-]', 'melting point', '218 to 220 °C'),
  ('C[n+]1ccccc1C=C(c1ccccc1)N1CCCC1.[I-]', 'melting point', '200 to 202 °C'),
  ('COc1ccc(C(=O)Cc2cccc(CC(=O)c3ccccc3)[n+]2C)cc1.O=S(=O)([O-])C(F)(F)F', 'melting point', '193 to 195 °C'),
  ('COc1ccc(C(=O)Cc2cccc(CC(=O)c3ccc(F)cc3)[n+]2C)cc1.[I-]', 'melting point', '219 to 220 °C');

Give a short answer stating reported melting point for COc1ccc(C(=O)CC2CCCCN2C)cc1.I (stereo not drawn) .
201 to 203 °C

###

Here, each record is paired with measured melting point data.

Consider the reported melting point for these compounds:
INSERT INTO measurements (compound, observation_type, value_measured) VALUES
  ('CN1C(CC(=O)c2ccccc2)CCCC1CC(=O)c1ccc(F)cc1.I (centres unmarked)', 'melting point', '152 to 154 °C'),
  ('C[n+]1c(CC(=O)c2ccccc2)cccc1CC(=O)c1ccccc1.[I-]', 'melting point', '197 to 199 °C'),
  ('C[n+]1ccccc1CC(=O)c1ccc(Cl)cc1.[I-]', 'melting point', '212 to 214 °C');

Fill in melting point for record COc1ccc(C(=O)Cc2cccc[n+]2C)cc1.F[P-](F)(F)(F)(F)F
168 to 170 °C

Output measured melting point for this item: C[n+]1ccccc1C1CCCCC1=O.[I-] (centres unmarked)
151 to 153 °C

Please list melting point recorded for the compound Cc1ccc(C(=O)CC2CCCC(CC(=O)c3ccccc3)N2C)cc1.I (centres unmarked)
192 to 193 °C

###

observation-type: melting point

INSERT INTO results (compound, value_measured) VALUES
  ('C[n+]1c(CC(=O)c2ccccc2)cccc1CC(=O)c1ccc(Cl)cc1.[I-]', '213 to 215 °C'),
  ('CN1C(CC(=O)c2ccc(Cl)cc2)CCCC1CC(=O)c1ccc(Br)cc1.I (centres unmarked)', '200 to 202 °C'),
  ('C[n+]1ccccc1CC(=O)c1ccc(Br)cc1.F[P-](F)(F)(F)(F)F', '185 to 187 °C'),
  ('C[n+]1c(CC(=O)c2ccccc2)cccc1CC(=O)c1ccc(Cl)cc1.O=S(=O)([O-])C(F)(F)F', '199 to 201 °C');

Give the reported value of melting point for this record: CN1CCCCC1CC(=O)c1cccc(Br)c1.I (centres unmarked)
134 to 136 °C

###

Property: melting point; scope: individual compounds

// worked examples, melting point included
INSERT INTO measurements (compound, value_measured) VALUES
  ('COc1ccc(C(=O)Cc2cccc(CC(=O)c3ccc(F)cc3)[n+]2C)cc1.O=S(=O)([O-])C(F)(F)F', '208 to 210 °C'),
  ('C[n+]1ccccc1CC(=O)c1ccccc1Br.[I-]', '204 to 205 °C'),
  ('C[n+]1ccccc1CC(=O)c1ccc(Br)cc1.[I-]', '222 to 224 °C');

Fill in reported melting point for this entry: CN1CCCCC1CC(=O)c1ccccc1Br.I (stereo not shown)
163.5 to 164 °C

Consider the compound C[n+]1c(C=C(c2ccccc2)N2CCOCC2)cccc1N1CCOCC1.[I-] and give its recorded melting point.
214 to 216 °C

Return value of melting point for input C[n+]1ccccc1CC(=O)c1ccc(Cl)cc1.F[P-](F)(F)(F)(F)F , no commentary.
152 to 154 °C

Report melting point for CN1CCCCC1CC(=O)c1ccc(Br)cc1.I (stereo not shown)
182 to 184 °C

Provide only the value of recorded melting point for C[n+]1c(CC(=O)c2ccccc2)cccc1CC(=O)c1ccc(F)cc1.[I-]
220 to 222 °C

// fetch melting point given entry Cc1ccc(C(=O)Cc2cccc(CC(=O)c3ccccc3)[n+]2C)cc1.[I-]
205 to 206 °C

Give the reported melting point for this compound. C[n+]1c(CC(=O)c2ccc(Cl)cc2)cccc1CC(=O)c1ccc(Br)cc1.O=S(=O)([O-])C(F)(F)F
226 to 228 °C

###

Property: melting point; scope: individual compounds

Worked examples follow.
INSERT INTO results (compound, observation_type, value_measured) VALUES
  ('CN1C(CC(=O)c2ccccc2)CCCC1CC(=O)c1ccc(Cl)cc1.I (centres unmarked)', 'melting point', '152 to 154 °C'),
  ('COc1ccc(C(=O)Cc2cccc[n+]2C)cc1.[I-]', 'melting point', '214 to 216 °C'),
  ('C[n+]1ccccc1CC(=O)c1cccc(Br)c1.[I-]', 'melting point', '217 to 218 °C'),
  ('CN1CCCCC1C1CCCCC1=O.I (centres unmarked)', 'melting point', '160 to 162 °C');

Supply reported melting point belonging to this compound: COc1ccc(C(=O)Cc2cccc(CC(=O)c3ccccc3)[n+]2C)cc1.[I-]
203 to 205 °C

Source of measurements: patent US6734196B2
